Test system: SN12C renal
protocol.description: NCI-60 one-dose screen, 48 h
run.conditions: 10 µM unless noted
The panel holds about 83,000 compounds, 20% with a hit somewhere; the sample as a whole holds those more often. Activity calls are given as the source filed them. How the source made its calls: active means growth percent below 10; inactive means the rest.
Parameter call: string, one of T for active, F for inactive

Illustrative cases are given below, each with its answer.
test.smiles | label.class
O=c1nc2oc3ccc4ccccc4c3cc-2s1 | F
CN1CCN(c2nc(NCCCCNc3ccnc4cc(Cl)ccc34)c3ccccc3n2)CC1 | F

**Q:** Record lookup: outcome of this test for `CN1CCN(c2ccc3nc(-c4ccc(OCCCCN5CCN(CCCCN6C(=O)c7cccc8cccc(c78)C6=O)CC5)cc4)[nH]c3c2)CC1` ?
**A:** F

---

Tested on: NCI-H23 lung
protocol.description: NCI-60 one-dose screen, 48 h (100 = growth as untreated, 0 = no growth, -100 = all killed)
run.conditions: 10 µM unless noted
The panel holds about 83,000 compounds, 20% with a hit somewhere; the sample as a whole holds those more often.
observable: growth (%)
Express your answer in %, writing the number without its unit.

A selection of reference data follows.
test.smiles | growth, %
CC1(C)CC[C@]2(C(=O)Nc3ccccn3)CC[C@]3(C)C(=CC[C@@H]4[C@@]5(C)C/C(=C/c6cccnc6)C(=O)C(C)(C)[C@@H]5CC[C@]43C)[C@H]2C1 | 35.9
COc1cccc(/C=N/NC(=O)c2ccccc2Nc2ccnc(C(F)(F)F)c2)c1O | 30.8
COc1ccc(-c2nc3cc(C(=O)Nc4cc(OC)c(OC)c(OC)c4)ccc3n2C2CCCCC2)cc1 | 93.6
O=C(CN1CCCCC1)Nc1ccc2oc(=O)ccc2c1 | 97.5
Cc1ccc(O)c(N2C(=NCc3ccco3)NS(=O)(=O)c3cnccc32)c1 | 95.2
COc1cc2c(cc1-c1c(C)noc1C)ncc1nc(C3CCCCC3)n([C@H](C)COC(F)F)c12 | 59.9

Let us move to another entry and its growth.
**Q:** Record request: growth value, item `COc1cccc(-c2nc3sccn3c2-c2ccnc(NCCCNS(=O)(=O)c3cccc(Cl)c3)c2)c1`
**A:** 39

---

Test system: SR leukemia
protocol.description: NCI-60 one-dose screen, 48 h
run.conditions: 10 µM unless noted
Compounds without any hit were thinned out: in the full panel of roughly 83,000, 20% have a hit. Active and inactive are the calls of the source. The calls were made as follows: active = growth percent below 10; inactive = the rest.
Parameter call: string, one of active, inactive

Illustrative cases are given below, each with its answer.
molecule | target.of.assay | label.class
N#CN1CC[C@H](C(=O)Nc2cc3cc(C(N)=O)ccc3cn2)C1 | SR leukemia | active
Oc1ccccc1-c1nnc(CNc2ccc(Cl)cc2)o1 | SR leukemia | inactive
O=[N+]([O-])c1ccc(Nc2nc(NCCN3CCOCC3)ncc2[N+](=O)[O-])cc1 | SR leukemia | inactive
COCCNc1ccc2c3c(cccc13)C(=O)N(CCN(C)C)C2=O | SR leukemia | active

**Q:** Record lookup: outcome of this test for `CCNC(=O)Oc1ccc(/C(=C(\C)c2ccc(Cl)cc2)c2ccc(OCCN(CC)CC)cc2)cc1` ?
**A:** active

---

Some compounds, each annotated with its measured growth.
Tested on: U251 CNS
protocol.description: NCI-60 one-dose screen, 48 h (100 = growth as untreated, 0 = no growth, -100 = all killed)
run.conditions: 10 µM unless noted
About 83,000 compounds went through this panel and 20% of them were active in at least one assay; those are over-represented in the sample as a whole.
Express your answer in %, writing the number without its unit.

A selection of reference data follows.
compound | observable | recorded.number
COC(=O)c1ccc2oc(NC(=O)c3ccc(Nc4ccc([N+](=O)[O-])cc4C)c([N+](=O)[O-])c3)nc2c1 | growth | 101
CC(=O)NCC1c2c(n(C)c3c(Cl)c(Cl)ccc23)C(=O)NC1(C)C (stereo not given) | growth | 94.7
COC(=O)c1cccc(NC(=O)c2ccc(-c3cccc(N)c3)o2)c1 | growth | 104
O=C1c2ccccc2C(=O)c2c(N=Nc3[nH]c(=S)[nH]c3O)cccc21 | growth | 12.8
O=C(CCl)Oc1ccc(-c2ccccc2)c(Br)c1 | growth | 102
NC(N)=N/N=C(/c1ccccc1)c1ccc(F)cc1 | growth | 4.79
Clc1ccc2c(NCCNc3nc(N4CCCCC4)nc4ccccc34)ccnc2c1 | growth | -81.7
COc1ccc(CN2c3ccccc3Oc3ccccc32)cc1O | growth | 24

**Q:** Record request: growth value, item `O=C(Cc1ccc(/C=C/C(=O)c2ncc[nH]2)cc1)Nc1ccc(F)cc1`
**A:** 8.1

**Q:** Record request: growth value, item `O=C1c2ccccc2OC=C(c2ccccc2)N1CCCCNc1ccc(S(=O)(=O)Nc2ncccn2)cc1`
**A:** 91.1

---

Some compounds, each annotated with its measured growth.
Test system: HOP-92 NSCLC
protocol.description: NCI-60 one-dose screen, 48 h (100 = growth as untreated, 0 = no growth, -100 = all killed)
run.conditions: 10 µM unless noted
Compounds without any hit were thinned out: in the full panel of roughly 83,000, 20% have a hit.
Express your answer in %, writing the number without its unit.

A selection of reference data follows.
test.smiles | unit.of.measure | recorded.number
Cn1cc(-c2nonc2-c2c[nH]c3ccc(F)cc23)c2cccnc21 | % | 70.6
CCCCN1CCCn2c1nc1c2c(=O)n(CCC)c(=O)n1CCC | % | 81.7

Let us move to another entry and its growth.
**Q:** Record request: growth value, item `CCNC(=O)Oc1ccc(/C(=C(\C)c2ccc(Cl)cc2)c2ccc(OCCN3CCCCC3)cc2)cc1`
**A:** 68.8

---

System: SN12C renal
protocol.description: NCI-60 one-dose screen, 48 h
run.conditions: 10 µM unless noted
Compounds without any hit were thinned out: in the full panel of roughly 83,000, 20% have a hit. Calls of active or inactive are those of the source. The calls were made as follows: active = growth percent below 10; inactive = the rest.
Parameter call: string, one of active, inactive

**Q:** Record lookup: outcome of this test for `OCc1ccc(N2CCc3cccc(F)c3C2)cc1Cl` ?
**A:** inactive

**Q:** Record lookup: outcome of this test for `Cc1[nH]c(-c2cc(N)ccc2Cl)c2c1C(=O)CCCC2` ?
**A:** inactive

---

System: SR leukemia
protocol.description: NCI-60 one-dose screen, 48 h (100 = growth as untreated, 0 = no growth, -100 = all killed)
run.conditions: 10 µM unless noted
This is part of a sample that, as a whole, favours compounds with a hit. Of some 83,000 tested, about 20% had one in any assay.
Some molecules, each annotated with its measured growth.
Express your answer in %, writing the number without its unit.

molecule | observable | unit.of.measure | recorded.number
O=C1Nc2ccc(Br)cc2C12Oc1ccccc1C1CC(c3ccc(F)cc3)=NN12 (stereo not drawn) | growth | % | 87.1

**Q:** Record request: growth value, item `O=C(Oc1cccnc1)c1ccsc1Nc1ccnc(C(F)(F)F)c1`
**A:** 17.6

**Q:** Record request: growth value, item `O=c1ccccc(-c2ccc(Br)cc2)c1O`
**A:** 4.69

---

Tested on: U251 CNS
protocol.description: NCI-60 one-dose screen, 48 h (100 = growth as untreated, 0 = no growth, -100 = all killed)
run.conditions: 10 µM unless noted
This is part of a sample that, as a whole, favours compounds with a hit. Of some 83,000 tested, about 20% had one in any assay.
Some compounds, each annotated with its measured growth.
Express your answer in %, writing the number without its unit.

A selection of reference data follows.
compound | unit.of.measure | growth
CC/C=C\C/C=C\C[C@H]1C/C=C2/C(=O)C=C[C@@H]2C/C=C\CCC(=O)O1 | % | -23.2
CCn1c(O)c(/C=N/NC(=O)C(C)c2ccc(CC(C)C)cc2)sc1=S (stereo not given) | % | 15.6
O=C(CCN1C(=O)/C(=C/c2ccc(Cl)cc2)SC1=S)NCCCN1CCOCC1 | % | 102
CC1=C[C@H]2c3c(c(O)c(O)c4oc(-c5ccccc5)cc(=O)c34)[C@H](c3cc(O)c(O)c4oc(-c5ccccc5)cc(=O)c34)[C@H]2C(C)(C)C1 | % | 2.66

**Q:** Record request: growth value, item OC(COc1cccc2ccccc12)CN1CCN(c2ccccc2Cl)CC1 (stereo not given)
**A:** 97.8

---

Tested on: SN12C renal
protocol.description: NCI-60 one-dose screen, 48 h (100 = growth as untreated, 0 = no growth, -100 = all killed)
run.conditions: 10 µM unless noted
The panel holds about 83,000 compounds, 20% with a hit somewhere; the sample as a whole holds those more often.
observable: growth (%)
Express your answer in %, writing the number without its unit.

test.smiles | observable | recorded.number
N#Cc1c(-c2ccc(Cl)cc2)nc(N/N=C/c2cccc(Br)c2)nc1N1CCOCC1 | growth | 91.4
CCOC(=O)c1sc2nc(-c3cccc(OC)c3)nc(N3CCOCC3)c2c1C | growth | 87.5
COc1ccc(-c2cc(Nc3ccnc(N4CCOCC4)n3)on2)cc1 | growth | 47.2
O=C(Cc1ccc(/C=C/C(=O)c2ncc[nH]2)cc1)Nc1ccccc1 | growth | 21.8

**Q:** Record request: growth value, item `N#Cc1nnn(-c2ccc(S(N)(=O)=O)cc2)c1NC(=O)CCl`
**A:** 88.3

**Q:** Record request: growth value, item `COc1ccc(-c2cc(=O)c3c(OC)c4ccoc4cc3o2)cc1`
**A:** 93.8

**Q:** Record request: growth value, item `COc1cc(-c2nc3cc(Cl)c(Cl)cc3[nH]2)ccc1OCC(=O)N=Nc1c(O)[nH]c2ccccc12`
**A:** -69.7

**Q:** Record request: growth value, item `COc1ccc(/C=C/C(=O)c2cc(O)ccc2O)cc1`
**A:** 93.7

**Q:** Record request: growth value, item `N#CCCN=Nc1c(O)[nH]c2ccc(F)cc12`
**A:** 101
